Target: glycosylated human PAI-1 (active form) (human, UniProt P05121 24-402, glycosylated (sites not given))
Sequence (P05121 24-402 limits assumed, form in doubt): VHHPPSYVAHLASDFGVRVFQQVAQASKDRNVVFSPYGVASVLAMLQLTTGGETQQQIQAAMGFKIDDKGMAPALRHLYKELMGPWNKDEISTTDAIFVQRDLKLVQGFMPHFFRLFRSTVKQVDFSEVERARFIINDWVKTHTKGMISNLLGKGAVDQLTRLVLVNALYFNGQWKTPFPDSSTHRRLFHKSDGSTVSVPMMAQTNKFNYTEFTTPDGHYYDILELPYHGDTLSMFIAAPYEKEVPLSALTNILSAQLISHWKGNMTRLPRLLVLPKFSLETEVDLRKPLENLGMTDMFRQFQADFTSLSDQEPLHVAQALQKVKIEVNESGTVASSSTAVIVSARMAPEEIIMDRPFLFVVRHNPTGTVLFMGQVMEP
Assay: cell-based or functional assay
# human plasma clot lysis Imax @ 100 nM per record follows
Please reply with the bare figure in % and do not write the unit itself.

Returns the measured human plasma clot lysis Imax @ 100 nM for the input binder. Input: A44-hv11 (antibody, V domains shown, constant regions only as pictures; also called A44V11; A44v11) VH: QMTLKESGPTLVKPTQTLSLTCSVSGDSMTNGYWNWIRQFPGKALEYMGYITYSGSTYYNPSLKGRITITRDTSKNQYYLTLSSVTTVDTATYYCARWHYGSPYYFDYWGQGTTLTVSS VL: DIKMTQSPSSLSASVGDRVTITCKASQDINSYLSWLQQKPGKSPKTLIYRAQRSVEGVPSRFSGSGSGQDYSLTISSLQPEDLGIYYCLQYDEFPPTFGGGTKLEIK
113

Given the binder APGv4 (antibody, V domains shown, humanized; also called APG variant 4) VH: QVQLVQSGAEVKKPGASVKVSCKASGYSFTDYNMNWVRQAPGQGLEWIGIIHPNSGTTTYNQKFKGRATLTVDQSTSTAYMELSSLRSEDTAVYYCARSKLRFFDYWGQGTLVTVSS VL: DIQLTQSPSSLSASVGDRVTITCKASQDIYSYLSWFQQKPGKAPKTLIYRANRLIDGVPSRFSGSGSGQDYTFTISSLQPEDIATYYCLQYDEFPFTFGQGTKLEIK , what is its reported human plasma clot lysis Imax @ 100 nM?
116

Could you tell me which human plasma clot lysis Imax @ 100 nM is on file for APGv2 (antibody, V domains shown, humanized; also called APG variant 2) VH: QVQLVQSGSELKKPGASVKVSCKASGYSFTDYNMNWVRQAPGQGLEWIGIIHPNSGTTTYNQKFKGRAVLSVDQSVSTAYLQISSLKAEDTAVYYCARSKLRFFDYWGQGTLVTVSS VL: DIQLTQSPSSLSASVGDRVTITCKASQDIYSYLSWFQQKPGKAPKTLIYRANRLIDGVPSRFSGSGSGQDYTFTISSLQPEDIATYYCLQYDEFPFTFGQGTKLEIK ?
114
